The values you see were collected from patent US20250361268A1.

# system.tested: T1, formyl peptide receptor 2 (FPR2) (UniProt P25090 1-351, limits assumed)
# T1 sequence (looked up): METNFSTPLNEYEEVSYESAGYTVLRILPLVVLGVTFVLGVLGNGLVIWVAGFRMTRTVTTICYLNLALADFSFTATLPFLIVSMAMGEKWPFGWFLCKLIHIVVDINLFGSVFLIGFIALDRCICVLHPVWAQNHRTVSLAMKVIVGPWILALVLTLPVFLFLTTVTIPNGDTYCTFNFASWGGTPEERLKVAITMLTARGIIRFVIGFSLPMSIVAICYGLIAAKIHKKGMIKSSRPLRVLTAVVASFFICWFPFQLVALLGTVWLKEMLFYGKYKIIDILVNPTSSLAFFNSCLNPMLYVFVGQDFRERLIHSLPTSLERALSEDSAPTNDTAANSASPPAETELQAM
# protocol.description: cell-based or functional assay
metric: EC50 for [Ca2+]

* WRYYPM (HELM PEPTIDE1{[ac].W.R.Y.Y.P.[dM].[am]}$$$$V2.0; SMILES CSCC[C@@H](NC(=O)[C@@H]1CCCN1C(=O)[C@H](Cc1ccc(O)cc1)NC(=O)[C@H](Cc1ccc(O)cc1)NC(=O)[C@H](CCCNC(=N)N)NC(=O)[C@H](Cc1c[nH]c2ccccc12)NC(C)=O)C(N)=O) [peptide of SEQ ID NO 122] | < 10 nM

Query: Suppose we examine the binder RMRYYVM (HELM PEPTIDE1{[ac].R.M.R.Y.Y.V.[dM].[am]}$$$$V2.0; SMILES CSCC[C@H](NC(=O)[C@H](CCCNC(=N)N)NC(C)=O)C(=O)N[C@@H](CCCNC(=N)N)C(=O)N[C@@H](Cc1ccc(O)cc1)C(=O)N[C@@H](Cc1ccc(O)cc1)C(=O)N[C@H](C(=O)N[C@H](CCSC)C(N)=O)C(C)C) [peptide of SEQ ID NO 98] ; what EC50 for [Ca2+] value has been reported?
Reply: < 10 nM
